Assay: RLM stability T1/2
Format: in vitro ADME
Details: rat, liver microsomes
measured quantity: half-life (min)

Ask: Fill in half-life for record `COc1ccc(CNC(=O)c2c(Cl)ccnc2OCC2CC2)cc1F`
Result: 0.974

[1] COc1ccc(CNC(=O)c2c(Cl)cccc2OCC2CC2)cc1F
[2] O=C(NCc1ccc2c(c1)OCO2)c1c(Cl)cccc1Cl [Control 1, reference compound]
[3] COc1ccc(CNC(=O)c2c(Cl)cc[n+]([O-])c2OCC2CC2)cc1F
Ask: Write the entries in order, lowest recorded half-life first. Record the ranking as a list of labels in the requested order.
Result: 1, 2, 3
(1: 0.753 min, 2: 1.33 min, 3: 82.5 min)

* * *

Molecular target: human ALDH2 wild type (Homo sapiens, UniProt P05091)
Construct: His-tag (pTrcHis vector) (N); made in house; host or cells: E. coli BL21
Sequence (P05091 18-517): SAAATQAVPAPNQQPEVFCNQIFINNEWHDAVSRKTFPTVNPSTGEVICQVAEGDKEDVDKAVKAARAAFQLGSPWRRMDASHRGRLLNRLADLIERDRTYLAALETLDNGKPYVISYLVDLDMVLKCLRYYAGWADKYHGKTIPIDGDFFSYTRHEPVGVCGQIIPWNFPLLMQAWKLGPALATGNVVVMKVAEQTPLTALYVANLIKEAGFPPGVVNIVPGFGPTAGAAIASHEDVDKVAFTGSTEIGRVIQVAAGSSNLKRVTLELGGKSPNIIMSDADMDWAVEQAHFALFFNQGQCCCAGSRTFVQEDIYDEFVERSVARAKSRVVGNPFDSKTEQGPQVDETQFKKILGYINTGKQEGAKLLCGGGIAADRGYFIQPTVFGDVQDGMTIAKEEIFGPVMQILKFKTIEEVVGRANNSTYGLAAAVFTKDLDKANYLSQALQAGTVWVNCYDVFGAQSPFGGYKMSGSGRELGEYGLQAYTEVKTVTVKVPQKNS
Assay: ALDH2 enzymatic assay (NADH at 340 nm), recombinant wild type enzyme
Assay type: biochemical
Set-up: key: −: no activation or inhibition; +: activation less than control 1; ++: activation similar to control 1, within 10%; +++: activation more than control 1 and less than control (compound 161); ++++: activation similar to compound 161, within 10%
Settings: activation relative to benchmarks control 1 and compound 161
Excerpt: ALDH2 catalyzes the oxidative reaction of substrate acetaldehyde to acetic acid using NAD^+ as a cofactor. Enzymatic activity, or catalytic rate, of aldehyde dehydrogenase (ALDH2) can be measured spectrophotometrically at UV wavelength λ340 nm by the accumulation of reduced product NADH derived from NAD^+. […] This method is well-established in the literature [e.g. D. K. Rex, W. F. Bosron, J. E. Smialek, T. K. Li, Alcohol Clin Exp Res 9, 147 (1985)]. […]
measured quantity: ALDH2 (wild-type)

Ask: Fill in ALDH2 (wild-type) for record COc1ccc(CNC(=O)c2ccc(Br)cc2C)cc1F [Compound 124]
Result: +

Ask: Fill in ALDH2 (wild-type) for record O=C(NCc1ccc2c(c1)CCCO2)c1c(Cl)ccnc1OCC1CC1 [Compound 244]
Result: ++

Ask: Fill in ALDH2 (wild-type) for record COc1ccc(CNC(=O)c2c(C)ccnc2OC2CCC2)cc1F [Compound 238]
Result: +

* * *

Experiment: Caco-2 permeability
Type: in vitro ADME
Conditions: human, A-B, read-out: absorption (Caco-2, Papp, A-B)
measured quantity: Papp A→B (×10⁻⁶ cm/s)
Please reply with the bare figure in ×10⁻⁶ cm/s and do not write the unit itself.

Ask: Fill in Papp A→B for record `COc1ccc(CNC(=O)c2c(Cl)ccnc2OCC2CC2)cc1F`
Result: 15.7

* * *

Target: CYP1A2 (Homo sapiens, UniProt P05177)
Sequence (P05177 1-516): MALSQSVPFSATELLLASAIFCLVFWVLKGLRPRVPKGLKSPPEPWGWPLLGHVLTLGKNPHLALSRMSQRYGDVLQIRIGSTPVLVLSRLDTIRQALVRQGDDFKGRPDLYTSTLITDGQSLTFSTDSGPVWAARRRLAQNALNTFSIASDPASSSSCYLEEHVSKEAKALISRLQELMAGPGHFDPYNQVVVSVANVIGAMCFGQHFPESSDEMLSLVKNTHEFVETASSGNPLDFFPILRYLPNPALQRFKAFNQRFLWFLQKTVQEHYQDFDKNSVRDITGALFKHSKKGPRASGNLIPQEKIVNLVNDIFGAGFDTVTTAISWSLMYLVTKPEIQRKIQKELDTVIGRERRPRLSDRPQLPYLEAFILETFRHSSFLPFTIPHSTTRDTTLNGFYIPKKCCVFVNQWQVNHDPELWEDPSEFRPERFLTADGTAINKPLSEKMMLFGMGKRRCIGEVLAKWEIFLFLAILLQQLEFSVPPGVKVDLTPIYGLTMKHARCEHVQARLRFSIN
Assay: Cyp inhibition 1A2
Format: in vitro ADME
Details: 10 μM
measured quantity: inhibition at 10 µM (%)

Ask: Give inhibition at 10 µM for COc1ccc(CNC(=O)c2c(Cl)ccnc2OCC2CC2)cc1F [Compound 161] tested on CYP1A2 (Homo sapiens, UniProt P05177).
Result: 35.2

[I] COc1ccc(CNC(=O)c2c(Cl)cc[n+]([O-])c2OCC2CC2)cc1F [Compound 169]
[II] O=C(NCc1ccc2c(c1)OCO2)c1c(Cl)cccc1Cl [Control 1, reference compound]
Ask: When their inhibition at 10 µM values are compared, which is larger, I or II ? Identify your pick by its label.
Result: II
